Test system: TC-71 (Ewing's sarcoma) cells
Assay: Cell proliferation assay, TC-71 (Alamar Blue)
Assay type: cell-based
Conditions: 72 h with compound, EC50 ranges as class symbols
pEC50: −log10 of the molar value.
endpoint: pEC50

Examples from the recorded data:
Cc1c(Nc2ncc(Cl)c(NCc3cccc4c3C(C)(C)C(=O)N4)n2)ccc(C2CCN(CC(C)(C)O)CC2)c1C [Example I-339]	> 7.30
COCCN1CCCC(c2ccc(Nc3ncc(Cl)c(NCc4cccc5c4C(C)(C)C(=O)N5)n3)cc2)C1 (racemic) [Example I-380]	6.60 to 7.30
Cc1cc(C2CCN(CCS(C)(=O)=O)CC2)ccc1Nc1ncc(Cl)c(NCc2cccc3c2C(C)(C)C(=O)N3)n1 [Example I-216]	6.60 to 7.30
CNC(=O)CN1CCCC(c2ccc(Nc3ncc(Cl)c(NCc4cccc5c4C(C)(C)C(=O)N5)n3)c(C)c2)C1 (racemic) [Example I-383]	6.60 to 7.30
COc1cc(C2CCCN(CC(C)(C)O)C2)ccc1Nc1ncc(Br)c(NCc2cccc3c2C(C)(C)C(=O)N3)n1 (racemic) [Example I-322]	> 7.30

Asked: GET pEC50 where system = TC-71 (Ewing's sarcoma) cells and item = Cc1cc(N2CCN(C)CC2)ccc1Nc1ncc(Cl)c(NCc2cccc3c2C(C)(C)C(=O)N3)n1 [Example I-330]
Given back: > 7.30

Asked: GET pEC50 where system = TC-71 (Ewing's sarcoma) cells and item = COc1cc(C2CCCN(CCO)C2)ccc1Nc1ncc(Br)c(NCc2cccc3c2C(C)(C)C(=O)N3)n1 (racemic) [Example I-361]
Given back: > 7.30

Asked: GET pEC50 where system = TC-71 (Ewing's sarcoma) cells and item = CC1(C)C(=O)Nc2cccc(CNc3nc(Nc4ccc(C5CCN(CCCF)CC5)cc4)ncc3Br)c21 [Example I-212]
Given back: 6.60 to 7.30

Asked: GET pEC50 where system = TC-71 (Ewing's sarcoma) cells and item = CC1(C)C(=O)Nc2cccc(CNc3nc(Nc4ccc(C5CCCNC5)cc4)ncc3Br)c21 (racemic) [Example I-238]
Given back: 6.60 to 7.30

Asked: GET pEC50 where system = TC-71 (Ewing's sarcoma) cells and item = CCc1cc(C2CCCN(CCOC)C2)ccc1Nc1ncc(Cl)c(NCc2cccc3c2C(C)(C)C(=O)N3)n1 (racemic) [Example I-384]
Given back: 6.60 to 7.30

Asked: GET pEC50 where system = TC-71 (Ewing's sarcoma) cells and item = Cc1cc(C2CCN(CC(C)(C)O)CC2)ccc1Nc1ncc(C(F)(F)F)c(NCc2cccc3c2C(C)(C)C(=O)N3)n1 [Example I-309]
Given back: > 7.30

Asked: GET pEC50 where system = TC-71 (Ewing's sarcoma) cells and item = Cc1cc(C2CCN(CC#N)CC2)ccc1Nc1ncc(Cl)c(NCc2cccc3c2C(C)(C)C(=O)N3)n1 [Example I-375]
Given back: > 7.30

Asked: GET pEC50 where system = TC-71 (Ewing's sarcoma) cells and item = COc1cc(C2CCN(C(=O)CO)CC2)ccc1Nc1ncc(Cl)c(NCc2cccc3c2C(C)(C)C(=O)N3)n1 [Example I-296]
Given back: 6.60 to 7.30

Asked: GET pEC50 where system = TC-71 (Ewing's sarcoma) cells and item = CC1(C)C(=O)Nc2cccc(CNc3nc(Nc4ccc(C5CCN(CCCF)CC5)cc4)ncc3Cl)c21 [Example I-213]
Given back: 6.60 to 7.30

Asked: GET pEC50 where system = TC-71 (Ewing's sarcoma) cells and item = COc1cc(C2CCN(C(=O)CN(C)C)CC2)ccc1Nc1ncc(Br)c(NCc2cccc3c2C(C)(C)C(=O)N3)n1 [Example I-68]
Given back: > 7.30

Asked: GET pEC50 where system = TC-71 (Ewing's sarcoma) cells and item = COc1cc(C2CCN(CC(C)(C)O)CC2)ccc1Nc1ncc(C(F)(F)F)c(NCc2cccc3c2C(C)(C)C(=O)N3)n1 [Example I-302]
Given back: > 7.30

Asked: GET pEC50 where system = TC-71 (Ewing's sarcoma) cells and item = CC1(C)C(=O)Nc2cccc(CNc3nc(Nc4ccc(C5CCN(C(=O)C6CCCN6)CC5)cc4)ncc3Br)c21 (stereo not drawn) [Example I-55]
Given back: 6.60 to 7.30

Asked: GET pEC50 where system = TC-71 (Ewing's sarcoma) cells and item = Cc1cc(C2CCCN(CC(C)(C)O)C2)ccc1Nc1ncc(C(F)(F)F)c(NCc2cccc3c2C(C)(C)C(=O)N3)n1 (racemic) [Example I-306]
Given back: > 7.30

###

Molecular target: cytoplasmic kinase domain of human IGF-1R (IGF-1R-GST) (Homo sapiens)
Construct: cytoplasmic kinase domain of human IGF-1R (amino acids 964-1370); GST (glutathione-S-transferase)
Test: Insulin-like growth factor-1 receptor (IGF-1R) kinase assay (DELFIA)
Settings: IGF-1R-GST kinase activity, read-out: IGF1R IC50
pIC50: −log10 of the molar value.
endpoint: pIC50

Examples from the recorded data:
COc1cc(N2CCN(C)CC2)ccc1Nc1ncc(C(F)(F)F)c(NCc2cccc3c2CC(=O)N3)n1	7.96
COCCC(=O)N1CCN(c2ccc(Nc3ncc(C(F)(F)F)c(NCc4cccc5c4C(C)(C)C(=O)N5)n3)c(OC)c2)CC1	8.05
COc1cc(N2CCN(C3CCN(CC#N)CC3)CC2)ccc1Nc1ncc(C(F)(F)F)c(NCc2cccc3c2CC(=O)N3)n1	8.52
COc1cc(N2CCN(CC3CC3)CC2)ccc1Nc1ncc(C(F)(F)F)c(NCc2cccc3c2C(C)(C)C(=O)N3)n1	8.70
CN1CCN(c2ccc(Nc3ncc(C(F)(F)F)c(NCc4cccc5c4C(C)(C)C(=O)N5)n3)cn2)CC1	7.89
COc1cc(N2CC3CC2CN3C2CCOCC2)ccc1Nc1ncc(C(F)(F)F)c(NCc2cccc3c2C(C)(C)C(=O)N3)n1 (stereo not drawn)	8.52

(A) CCOc1cc(N2CCN(CC)CC2)ccc1Nc1ncc(C(F)(F)F)c(NCc2cccc3c2C(C)(C)C(=O)N3)n1
(B) CNC(=O)CN1CCCC(c2ccc(Nc3ncc(Cl)c(NCc4cccc5c4C(C)(C)C(=O)N5)n3)cc2)C1 (racemic)
(C) COc1cc(N2CCN(C)CC2)ccc1Nc1ncc(Cl)c(NCc2cccc3c2C(C)(C)C(=O)N3)n1
(D) COc1cc(N2CCN(C3CCOCC3)CC2)ccc1Nc1ncc(Cl)c(NCc2cccc3c2C(C)(C)C(=O)N3)n1
(E) COc1cc(N2CCN(C(C)C)[C@H](C)C2)ccc1Nc1ncc(C(F)(F)F)c(NCc2cccc3c2C(C)(C)C(=O)N3)n1
Asked: Ascending by pIC50, please. List the labels in the requested order.
Given back: D, B, C, A, E

###

Reported values of pEC50 for individual entries
Test system: TC-71 (Ewing's sarcoma) cells
Test: Cell proliferation assay, TC-71 (Alamar Blue)
Format: cell-based
Settings: 72 h with compound, EC50 ranges as class symbols
pEC50: −log10 of the molar value.

Cc1cc(C2CCN(CC(C)(C)O)CC2)ccc1Nc1ncc(Cl)c(NCc2cccc3c2C(C)(C)C(=O)N3)n1	> 7.30
Cc1cc(C2CCN(CCO)CC2)ccc1Nc1ncc(Br)c(NCc2cccc3c2C(C)(C)C(=O)N3)n1	> 7.30
Cc1cc(Nc2ncc(Cl)c(NCc3cccc4c3C(C)(C)C(=O)N4)n2)ccc1C1CCN(CC(C)(C)O)CC1	> 7.30

Shifting focus to the compound that follows.
Asked: // Input: Cc1cc(C2CCN(S(C)(=O)=O)CC2)ccc1Nc1ncc(Cl)c(NCc2cccc3c2C(C)(C)C(=O)N3)n1 . Output its pEC50 only.
Given back: 5.52 to 6.60

###

Molecular target: cytoplasmic kinase domain of human IGF-1R (IGF-1R-GST) (Homo sapiens)
Construct: cytoplasmic kinase domain of human IGF-1R (amino acids 964-1370); GST (glutathione-S-transferase)
Test: Insulin-like growth factor-1 receptor (IGF-1R) kinase assay (DELFIA)
Conditions: IGF-1R-GST kinase activity, read-out: IGF1R IC50
endpoint: IC50 (nM)

Examples from the recorded data:
COCCN1CCCC(c2ccc(Nc3ncc(Br)c(NCc4cccc5c4C(C)(C)C(=O)N5)n3)c(C)c2)C1 (racemic)	0.5
COc1cc(N2CCNCC2)ccc1Nc1ncc(C(F)(F)F)c(NCc2cccc3c2C(C)(C)C(=O)N3)n1	0.7

(I) Cc1cc(C2CCN(C)CC2)ccc1Nc1ncc(Cl)c(NCc2cccc3c2C(C)(C)C(=O)N3)n1
(II) CCOc1cc(N2CCN(C)CC2)ccc1Nc1ncc(C(F)(F)F)c(NCc2cccc3c2C(C)(C)C(=O)N3)n1
Asked: Please choose the item with the lower IC50 value from this pair: I and II Please identify the chosen entry by its label.
Given back: II
(II: 0.55 nM, I: 1 nM)

###

Target: cytoplasmic kinase domain of human IGF-1R (IGF-1R-GST) (Homo sapiens, UniProt P08069)
Construct: cytoplasmic kinase domain of human IGF-1R (amino acids 964-1370); GST (glutathione-S-transferase)
Sequence (P08069 964-1367 limits assumed): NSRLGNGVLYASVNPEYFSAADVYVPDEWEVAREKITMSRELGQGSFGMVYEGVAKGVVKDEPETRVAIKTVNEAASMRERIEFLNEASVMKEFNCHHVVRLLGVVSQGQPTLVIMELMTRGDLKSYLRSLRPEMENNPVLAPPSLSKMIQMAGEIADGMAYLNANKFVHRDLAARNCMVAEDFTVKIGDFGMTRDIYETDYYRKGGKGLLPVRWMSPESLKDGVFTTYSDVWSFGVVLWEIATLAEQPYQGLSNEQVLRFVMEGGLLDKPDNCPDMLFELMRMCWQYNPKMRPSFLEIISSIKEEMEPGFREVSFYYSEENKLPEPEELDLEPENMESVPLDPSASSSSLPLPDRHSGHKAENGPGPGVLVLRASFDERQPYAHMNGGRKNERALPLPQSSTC
Experiment: Insulin-like growth factor-1 receptor (IGF-1R) kinase assay (DELFIA)
Conditions: IGF-1R-GST kinase activity, read-out: IGF1R IC50
Method: Insulin-Like Growth Factor-1 Receptor (IGF-1R)-Kinase Assay The kinase activity is measured by DELFIA® assay (dissociation-enhanced lanthanide fluorescence immunoassay, Perkin Elmer). […] Enzyme activity is measured in the presence of substances and a control substance. […] After 40 min at RT the reactions are stopped with 50 μL of stop solution (250 mM EDTA, 20 mM HEPES pH 7.4). […] The fluorescence signal is measured with a Wallac Victor TRF Reader. […]
pIC50: −log10 of the molar value.
endpoint: pIC50

CC(C)(O)CN1CCC(c2ccc(Nc3ncc(Cl)c(NCc4cccc5c4C(C)(C)C(=O)N5)n3)c(OC(F)F)c2)CC1 [Example I-342]	8.52
COc1cc(N2CC3CC2CN3C(C)=O)ccc1Nc1ncc(C(F)(F)F)c(NCc2cccc3c2C(C)(C)C(=O)N3)n1 (stereo not shown) [Example I-80]	7.33
COCCN1CCC[C@@H](c2ccc(Nc3ncc(Br)c(NCc4cccc5c4C(C)(C)C(=O)N5)n3)c(C)c2)C1 [Example I-362]	9.52

(A) CCOc1cc(N2CCN(C3COC3)CC2)ccc1Nc1ncc(C(F)(F)F)c(NCc2cccc3c2C(C)(C)C(=O)N3)n1 [Example I-146]
(B) Cc1cc(C2CCN(CCO)CC2)ccc1Nc1ncc(C(F)(F)F)c(NCc2cccc3c2C(C)(C)C(=O)N3)n1 [Example I-355]
Asked: So which one has the bigger pIC50 here, A or B ? Please identify the chosen entry by its label.
Given back: B
(B: 9.30, A: 8.40)
